# tested-on: human p38 kinase alpha (Homo sapiens, UniProt Q16539)
# Construct: GST (N, cleaved yes); made in house; host or cells: E. coli DH10B
# Sequence (Q16539 whole entry): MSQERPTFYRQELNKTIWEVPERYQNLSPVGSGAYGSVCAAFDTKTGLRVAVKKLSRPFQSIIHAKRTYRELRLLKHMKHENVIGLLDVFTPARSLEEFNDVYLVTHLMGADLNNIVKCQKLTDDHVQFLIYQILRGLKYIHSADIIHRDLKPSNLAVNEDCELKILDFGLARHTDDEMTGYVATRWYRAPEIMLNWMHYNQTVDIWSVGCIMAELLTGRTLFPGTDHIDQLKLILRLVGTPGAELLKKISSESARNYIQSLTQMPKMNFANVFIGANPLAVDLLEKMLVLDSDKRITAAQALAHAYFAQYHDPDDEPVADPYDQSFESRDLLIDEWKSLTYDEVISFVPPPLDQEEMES
# assay-details: p38 kinase in vitro assay, phosphorylation of biotinylated PHAS-I with 32P-ATP
# Type: biochemical
# assay-context: @ 10.0 uM
metric-name: P38 alpha kinase IC50, uM or % inhib @ conc. (uM): % inhib (% @)

{"molecule": "CCCCCCCCOc1cccc(NC(=O)Cn2nc(-c3ccc(F)cc3)c(-c3ccncc3)c2C)c1 [Example B-2442]", "recorded-result": 86.0}
{"molecule": "Cc1ccc(C)c(C(=O)c2ccccc2NC(=O)Cn2nc(-c3ccc(F)cc3)c(-c3ccncc3)c2C)c1 [Example B-2443]", "recorded-result": 84.0}
{"molecule": "Cc1c(-c2ccncc2)c(-c2ccc(F)cc2)nn1CC(=O)Nc1ccccc1C(=O)NC1CCCCC1 [Example B-2451]", "recorded-result": 87.0}
{"molecule": "Cc1c(-c2ccncc2)c(-c2ccc(F)cc2)nn1CC(=O)Nc1ccccc1OC(F)(F)F [Example B-2453]", "recorded-result": 91.0}
{"molecule": "Cc1c(-c2ccncc2)c(-c2ccc(F)cc2)nn1CC(=O)N1CCC(N(C)C(=O)OC(C)(C)C)C1 (stereo not shown) [Example B-2389]", "recorded-result": 39.0}
{"molecule": "Cc1c(-c2ccncc2)c(-c2ccc(F)cc2)nn1CC(=O)Nc1ccc(Cl)nc1 [Example B-2415]", "recorded-result": 94.0}
{"molecule": "Cc1c(-c2ccncc2)c(-c2ccc(F)cc2)nn1CC(=O)Nc1ccccc1C(C)C [Example B-2433]", "recorded-result": 94.0}
{"molecule": "COCCN(Cc1cccc(OC)c1)C(=O)Cn1nc(-c2ccc(F)cc2)c(-c2ccncc2)c1C [Example B-2394]", "recorded-result": 37.0}
{"molecule": "CSc1ccccc1NC(=O)Cn1nc(-c2ccc(F)cc2)c(-c2ccncc2)c1C [Example B-2428]", "recorded-result": 82.0}
{"molecule": "Cc1c(-c2ccncc2)c(-c2ccc(F)cc2)nn1CC(=O)Nc1ccc(CSc2ccc(Cl)cc2)cc1 [Example B-2461]", "recorded-result": 67.0}

###

Measured IC50 values are reported for all entries that follow.
# tested-on: human p38 kinase alpha (Homo sapiens, UniProt Q16539)
# Construct: GST (N, cleaved yes); made in house; host or cells: E. coli DH10B
# assay-details: p38 kinase in vitro assay, phosphorylation of biotinylated PHAS-I with 32P-ATP
# Type: biochemical
# assay-context: in vitro P38-alpha kinase inhibition; read-out: P38 alpha kinase IC50

{"compound": "COc1ccc(S(=O)(=O)NC(C)c2[nH]nc(-c3ccc(F)cc3)c2-c2ccncc2)cc1OC (stereo not drawn)", "qualifier": "=", "IC50 [nM]": 91}
{"compound": "CCCCOc1ccc(S(=O)(=O)NC(C)c2[nH]nc(-c3ccc(F)cc3)c2-c2ccncc2)cc1 (stereo not drawn) [Example B-0633]", "qualifier": "=", "IC50 [nM]": 600}
{"compound": "O=S(=O)(NC(Cc1ccccc1)c1[nH]nc(-c2ccc(F)cc2)c1-c1ccncc1)C(F)(F)F (stereo not drawn) [Example B-0713]", "qualifier": "=", "IC50 [nM]": 4300}
{"compound": "CCNC(=O)NC(CCC(=O)NC)c1[nH]nc(-c2ccc(F)cc2)c1-c1ccncc1 (stereo not drawn)", "qualifier": "=", "IC50 [nM]": 1060}
{"compound": "COc1cccc(CC(=O)NC(Cc2ccccc2)c2[nH]nc(-c3ccc(F)cc3)c2-c2ccncc2)c1 (stereo not drawn) [Example B-0817]", "qualifier": "=", "IC50 [nM]": 3070}
{"compound": "CC(C)NC(=O)NC(C)c1[nH]nc(-c2ccc(F)cc2)c1-c1ccncc1 (stereo not drawn)", "qualifier": "=", "IC50 [nM]": 1880}
{"compound": "O=S(=O)(NCCc1[nH]nc(-c2ccc(F)cc2)c1-c1ccncc1)c1c(Cl)cccc1Cl", "qualifier": "<", "IC50 [nM]": 100}
{"compound": "CC(NS(=O)(=O)c1cc(S(=O)(=O)c2ccccc2)cs1)c1[nH]nc(-c2ccc(F)cc2)c1-c1ccncc1 (stereo not drawn)", "qualifier": "<", "IC50 [nM]": 100}
{"compound": "CNC(=O)CCC(NC(=O)C(C)C)c1[nH]nc(-c2ccc(F)cc2)c1-c1ccncc1 (stereo not drawn)", "qualifier": "=", "IC50 [nM]": 810}
